# Target Under Test: UniProt:P33033
# Sequence (P33033 whole entry): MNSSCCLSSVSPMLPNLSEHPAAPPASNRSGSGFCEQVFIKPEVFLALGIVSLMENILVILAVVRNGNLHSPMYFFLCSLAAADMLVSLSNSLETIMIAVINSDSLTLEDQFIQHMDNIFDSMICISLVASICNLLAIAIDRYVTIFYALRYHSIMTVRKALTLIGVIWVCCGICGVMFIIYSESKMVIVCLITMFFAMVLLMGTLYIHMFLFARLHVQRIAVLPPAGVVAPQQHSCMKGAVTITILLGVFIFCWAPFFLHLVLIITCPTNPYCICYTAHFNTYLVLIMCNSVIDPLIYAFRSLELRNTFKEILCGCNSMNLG
# Procedure Details: Antagonist activity at mouse melanocortin receptor 3 expressed in HEK293 cells assessed as inhibition of NDP-MSH-induced cAMP accumulation after 2 hrs by AlphaScreen assay
# Type: functional, cell-based
# Conditions Used: read-out: pA2 (converted)
Non-standard residues stand in square brackets, D forms with d. Residues, ends and D or L forms follow the SMILES beside them.

Compound	Kb
N=C(N)NCCC[C@@H]1NC(=O)[C@@H]2CCCN2C(=O)[C@H]2CCCN2C(=O)[C@H](Cc2ccccc2)NC(=O)CNC(=O)[C@H](CC(N)=O)NC(=O)[C@H](Cc2ccccc2)NC(=O)[C@H](Cc2ccccc2)NC1=O (cyclo(RFFNGF[dP]P))	> 3.16 µM
C[C@@H]1NC(=O)[C@H](CCC(=O)O)NC(=O)[C@H](Cc2ccccc2)NC(=O)[C@H](Cc2ccccc2)NC(=O)[C@H](CCCNC(=N)N)NC(=O)[C@@H]2CCCN2C(=O)[C@H]2CCCN2C(=O)[C@H](Cc2ccccc2)NC1=O	> 3.16 µM
CCCC[C@@H]1NC(=O)[C@H](Cc2ccccc2)NC(=O)[C@H](Cc2ccccc2)NC(=O)[C@H](CCCNC(=N)N)NC(=O)[C@@H]2CCCN2C(=O)[C@H]2CCCN2C(=O)[C@H](Cc2ccccc2)NC(=O)[C@H](C)NC1=O	> 3.16 µM
